Ref: ChEMBL document CHEMBL1144001

# assayProcedure: Displacement of [3H]TBOB from GABAA receptor in Sprague-Dawley rat cerebral cortex
# Type: tissue-based

# structureSmilesString, unitText, IC50
records = [
    ("CC(=O)[C@H]1CC[C@H]2[C@@H]3CCC4=C[C@H](O)CC[C@@]45CO[C@@H](C[C@]12C)[C@@H]35", "nM", 518),
    ("CC(=O)[C@H]1CC[C@H]2[C@@H]3CC[C@H]4C[C@H](O)C[C@H]5O[C@H](C[C@]12C)[C@@H]3[C@]45C", "nM", 741),
    ("CC(=O)[C@H]1CC[C@H]2[C@@H]3CC[C@@H]4C[C@H](O)CC[C@]4(C)[C@H]3CC[C@]12C", "nM", 830),
    ("CC(=O)[C@H]1CC[C@H]2[C@@H]3CC[C@@H]4C[C@H](O)C[C@@H]5O[C@H](C[C@]12C)[C@@H]3[C@]45C", "nM", 420),
    ("CC(=O)[C@H]1CC[C@H]2[C@@H]3CC[C@H]4C[C@H](O)CC[C@]4(C)[C@H]3CC[C@]12C", "nM", 329),
]
